Target: Histone deacetylase 8 (Homo sapiens)
Sequence (Q9BY41 whole entry): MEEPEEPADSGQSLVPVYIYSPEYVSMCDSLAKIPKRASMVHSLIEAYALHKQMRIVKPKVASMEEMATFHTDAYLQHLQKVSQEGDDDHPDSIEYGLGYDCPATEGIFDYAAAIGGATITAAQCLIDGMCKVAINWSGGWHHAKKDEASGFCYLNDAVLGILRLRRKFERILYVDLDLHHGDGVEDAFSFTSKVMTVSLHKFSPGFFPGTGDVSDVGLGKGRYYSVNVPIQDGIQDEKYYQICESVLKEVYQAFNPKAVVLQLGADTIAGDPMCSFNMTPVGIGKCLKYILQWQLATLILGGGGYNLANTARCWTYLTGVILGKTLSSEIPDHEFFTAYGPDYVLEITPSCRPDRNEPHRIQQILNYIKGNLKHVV
Assay: Inhibition of recombinant HDAC8 (unknown origin) expressed in Escherichia coli BL21(DE3) after 60 mins using trichostatin A by label-free mass spectrometry-based SAMDI assay
recorded_endpoint: IC50 (nM)

>>> number("CC[C@H]1OC(=O)[C@H](C)C(=O)[C@H](C)[C@@H](O[C@@H]2O[C@H](C)C[C@H](N(C)Cc3ccc(-c4cn(CCCCCC(=O)NO)nn4)cc3)[C@H]2O)[C@@](C)(OC)C[C@@H](C)C2=NCCN3C(=O)O[C@@]1(C)[C@H]3[C@H]2C")
2030
>>> number("CC[C@@H]1OC(=O)[C@@H](C)[C@H](O[C@H]2C[C@@](C)(OC)[C@](O)(CN(C)Cc3ccc(-c4cn(CC(=O)NO)nn4)cc3)[C@H](C)O2)[C@H](C)[C@H](O[C@@H]2O[C@H](C)C[C@H](N(C)C)[C@H]2O)[C@@](C)(OC)C[C@H](C)C(=O)[C@@H](C)[C@@H](O)[C@@]1(C)O")
7120
>>> number("CC[C@@H]1OC(=O)[C@@H](C)[C@H](O[C@@H]2C[C@](C)(OC)[C@@](O)(CN(C)C)[C@@H](C)O2)[C@H](C)[C@H](O[C@@H]2O[C@H](C)C[C@H](N(C)Cc3ccc(-c4cn(CCCCCCC(=O)NO)nn4)cc3)[C@H]2O)[C@@](C)(OC)C[C@H](C)C(=O)[C@@H](C)[C@@H](O)[C@@]1(C)O")
2210
>>> number("CC[C@@H]1OC(=O)[C@@H](C)[C@H](O[C@H]2C[C@@](C)(OC)[C@](O)(CN(C)Cc3ccc(-c4cn(CCCCC(=O)NO)nn4)cc3)[C@H](C)O2)[C@H](C)[C@H](O[C@@H]2O[C@H](C)C[C@H](N(C)C)[C@H]2O)[C@@](C)(OC)C[C@H](C)C(=O)[C@@H](C)[C@@H](O)[C@@]1(C)O")
1820
>>> number("CC[C@H]1OC(=O)[C@H](C)C(=O)[C@H](C)[C@@H](O[C@@H]2O[C@H](C)C[C@H](N(C)Cc3cccc(-c4cn(CCCCCCC(=O)NO)nn4)c3)[C@H]2O)[C@@](C)(OC)C[C@@H](C)C2=NCCN3C(=O)O[C@@]1(C)[C@H]3[C@H]2C")
310
